# TEST_PROTOCOL: Half life in human
# Assay type: ADME, organism-based
# RUN_CONDITIONS: in vivo
RECORDED_ENDPOINT: half-life (min)

(P) C[C@@H]1CCN(C(=O)CC#N)C[C@@H]1N(C)c1ncnc2[nH]ccc12
(Q) COc1cc(F)c(C(C)C)cc1-c1ccc(C(F)(F)F)cc1CN1C(=O)O[C@H](c2cc(C(F)(F)F)cc(C(F)(F)F)c2)[C@@H]1C
Ask | Looking at P and Q , which one comes out lower in half-life terms? // return label of chosen record
Reply | P
(P: 180 min, Q: 3600 min)

* * *

# TEST_PROTOCOL: Terminal half life in human at 0.1 mg/kg, iv
# Format: ADME, organism-based
# RUN_CONDITIONS: in vivo, read-out: beta t1/2 (converted)
RECORDED_ENDPOINT: half-life (h)
Report only the number, with the unit h understood.

Ask | Request the reported half-life associated with NS(=O)(=O)N1CCN(C2CN(CC[C@]3(c4ccc(Cl)c(Cl)c4)CCC(=O)N(CC4CC4)C3)C2)CC1
Reply | 28
